Assignment: determine reported DC50 for the given molecules.
biological target: Bromodomain-containing protein 4 (Homo sapiens); assay: Induction of degradation of wildtype BRD4 BD1 (unknown origin) expressed in Flp293T cells coexpressing EGFP and mCherry incubated for 5 hrs by laser scanning fluorimetric assay; assay type: cell-based

Use these answered entries as a reference point.
COc1ccc2c(c1)C(c1ccc(Cl)cc1)=N[C@@H]([C@@H](C)C(=O)NCCOCCOCCNC(=O)COc1cccc3c1C(=O)N(C1CCC(=O)NC1=O)C3=O)c1nnc(C)n1-2 (some centres undefined) :: > 10 µM
COc1ccc2c(c1)C(c1ccc(Cl)cc1)=N[C@@H]([C@@H](C)C(=O)NCCCCCCCNC(=O)COc1cccc3c1C(=O)N(C1CCC(=O)NC1=O)C3=O)c1nnc(C)n1-2 (some centres undefined) :: > 10 µM
COc1ccc2c(c1)C(c1ccc(Cl)cc1)=N[C@@H]([C@@H](C)C(=O)NCCOCCNC(=O)COc1cccc3c1C(=O)N(C1CCC(=O)NC1=O)C3=O)c1nnc(C)n1-2 (some centres undefined) :: > 10 µM

For the next question, use this molecule.
# input Which DC50 value is on record for COc1ccc2c(c1)C(c1ccc(Cl)cc1)=N[C@@H]([C@@H](C)C(=O)NCCCCCNC(=O)COc1cccc3c1C(=O)N(C1CCC(=O)NC1=O)C3=O)c1nnc(C)n1-2 (some centres undefined) ?
# output > 10 µM
